Biological target: Tyrosine-protein kinase Mer (Homo sapiens);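 note: reported value is a mean inhibition of MER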
Sequence (whole entry): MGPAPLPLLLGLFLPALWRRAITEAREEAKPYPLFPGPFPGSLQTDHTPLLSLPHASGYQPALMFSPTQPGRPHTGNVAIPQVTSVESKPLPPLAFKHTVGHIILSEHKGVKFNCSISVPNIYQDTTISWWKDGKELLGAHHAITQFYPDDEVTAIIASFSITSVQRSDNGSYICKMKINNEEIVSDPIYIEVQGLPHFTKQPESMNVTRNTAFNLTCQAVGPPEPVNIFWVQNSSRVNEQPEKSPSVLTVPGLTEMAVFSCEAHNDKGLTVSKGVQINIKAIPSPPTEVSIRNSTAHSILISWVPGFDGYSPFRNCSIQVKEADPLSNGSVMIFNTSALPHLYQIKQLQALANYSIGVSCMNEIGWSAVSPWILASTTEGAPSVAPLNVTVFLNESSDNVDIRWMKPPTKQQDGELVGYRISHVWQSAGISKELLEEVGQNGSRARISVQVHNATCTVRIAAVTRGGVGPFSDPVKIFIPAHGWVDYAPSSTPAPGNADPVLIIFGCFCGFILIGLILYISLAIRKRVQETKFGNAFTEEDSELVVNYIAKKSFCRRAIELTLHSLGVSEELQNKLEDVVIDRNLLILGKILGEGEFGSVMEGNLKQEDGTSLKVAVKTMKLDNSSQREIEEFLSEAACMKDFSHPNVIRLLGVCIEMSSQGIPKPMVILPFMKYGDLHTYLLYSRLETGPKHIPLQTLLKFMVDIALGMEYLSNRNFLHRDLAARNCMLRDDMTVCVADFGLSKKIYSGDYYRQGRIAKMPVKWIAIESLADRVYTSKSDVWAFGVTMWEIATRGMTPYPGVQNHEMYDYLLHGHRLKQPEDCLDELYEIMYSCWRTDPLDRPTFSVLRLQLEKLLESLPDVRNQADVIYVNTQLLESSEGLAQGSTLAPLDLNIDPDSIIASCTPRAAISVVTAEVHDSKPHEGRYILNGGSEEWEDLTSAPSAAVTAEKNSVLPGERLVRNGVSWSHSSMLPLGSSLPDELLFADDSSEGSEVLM
Conditions: at 0.1 µM
I'd be grateful if you could share measured inhibition for these entries.
Answers are plain numbers, in %.

Here is how some compounds turned out for inhibition.
{"COMPOUND": "Cc1ccc(O)cc1Nc1ccnc2ccc(S(C)(=O)=O)cc12", "UNIT_OF_MEASURE": "%", "OBS_VALUE": 3.15}
{"COMPOUND": "NC(=O)c1sc(-n2cnc3ccccc32)cc1OCc1ccccc1Br", "UNIT_OF_MEASURE": "%", "OBS_VALUE": 1.26}
{"COMPOUND": "N#Cc1c(NC(=O)c2ccccc2F)sc2c1CCCC2", "UNIT_OF_MEASURE": "%", "OBS_VALUE": -1.5}
{"COMPOUND": "CCCN1CCCC(c2ccc(Nc3nc(Nc4cc(F)ccc4C(N)=O)c4cc[nH]c4n3)c(OC)c2)C1 (stereo unspecified)", "UNIT_OF_MEASURE": "%", "OBS_VALUE": 3.05}
{"COMPOUND": "NS(=O)(=O)c1ccc(NC=C2C(=O)Nc3ccc4ncsc4c32)cc1", "UNIT_OF_MEASURE": "%", "OBS_VALUE": 3.9}

Provide inhibition values for the following items, in order.
1. Cc1ccc2c(-c3ccnc(Nc4cccc(C(F)(F)F)c4)n3)c(-c3ccccc3)nn2n1
2. N#Cc1cccc(Nc2nccc(-c3cnn4ncccc34)n2)c1
3. CN(c1ccc(NC(=O)Nc2ccc(OC(F)(F)F)cc2)cc1)c1ccnc(Nc2cccc(S(N)(=O)=O)c2)n1
4. CS(=O)(=O)CCNCc1nc(-c2ccc3ncnc(Nc4ccc(OCc5cccc(C(F)(F)F)c5)cc4)c3c2)cs1

[4.49, 7.85, 5.5, 3.74]

----------
target: Protein-tyrosine kinase 6 (Homo sapiens) (UniProt Q13882); conditions: at 1 µM
Sequence (Q13882 whole entry, looked up): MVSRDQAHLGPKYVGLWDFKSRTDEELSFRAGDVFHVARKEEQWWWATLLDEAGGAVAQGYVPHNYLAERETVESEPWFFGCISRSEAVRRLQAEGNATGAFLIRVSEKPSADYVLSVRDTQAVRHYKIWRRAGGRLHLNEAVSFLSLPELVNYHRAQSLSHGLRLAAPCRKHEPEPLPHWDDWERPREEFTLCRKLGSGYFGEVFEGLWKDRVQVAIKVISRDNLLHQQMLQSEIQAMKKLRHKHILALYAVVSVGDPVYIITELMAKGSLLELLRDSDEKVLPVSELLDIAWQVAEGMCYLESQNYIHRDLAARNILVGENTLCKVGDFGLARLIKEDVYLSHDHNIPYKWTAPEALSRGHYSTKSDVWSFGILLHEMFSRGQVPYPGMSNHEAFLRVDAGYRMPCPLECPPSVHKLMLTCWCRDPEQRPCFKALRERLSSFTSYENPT
Description: GSK_PKIS: BRK mean inhibition at 1 uM [Nanosyn]
I'd be grateful if you could share measured inhibition for these entries.
Numbers only, in %.

{"CHEMICAL_STRING": "COC(=O)c1cncc(/C=C/c2c(C)cc(O)cc2C)c1", "inhibition [%]": 50.2}
{"CHEMICAL_STRING": "Cc1cc(-c2ccccn2)cc(C)c1/C=C/c1cncc(-c2nn[nH]n2)c1", "inhibition [%]": 51}
{"CHEMICAL_STRING": "Cc1cc(O)cc(C)c1/C=C/c1cncc(C(=O)N(C)C)c1", "inhibition [%]": 6.32}

Okay, next one:
Using known records, supply inhibition for C[C@@H](Oc1cc(-n2cnc3ccc(OC[C@@H](O)CO)cc32)sc1C(N)=O)c1ccccc1Cl
-0.38

----------
I'd be grateful if you could share measured inhibition for these entries.
target: Cyclin-dependent kinase 5 (Homo sapiens); conditions: at 1 µM;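 note: mean value of inhibition, with the enzyme tested as CDK5/p35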
Numbers only, in %.

Here is how some molecules turned out for inhibition.
{"CHEMICAL_STRING": "N#Cc1c(NC(=O)c2ccccc2F)sc2c1CCCC2", "inhibition / %": 1.58}
{"CHEMICAL_STRING": "NS(=O)(=O)c1cccc(Nc2cc(-c3ccc(F)cc3)n[nH]2)c1", "inhibition / %": 31.4}
{"CHEMICAL_STRING": "C[C@@H](Oc1cc(-n2cnc3ccc(OCC4CCN(C)CC4)cc32)sc1C(N)=O)c1ccccc1C(F)(F)F", "inhibition / %": 3.08}
{"CHEMICAL_STRING": "Cc1cc(-c2ccccn2)cc(C)c1/C=C/c1cncc(-c2nn[nH]n2)c1", "inhibition / %": 5.72}
{"CHEMICAL_STRING": "NS(=O)(=O)c1ccc(NC=C2C(=O)Nc3ccc4ncsc4c32)cc1", "inhibition / %": 74.7}

Okay, next one:
Using known records, supply inhibition for [O-][S+]1CCN(Cc2ccc(-c3ccc4ncnc(Nc5ccc(OCc6ccccc6)c(Cl)c5)c4c3)o2)CC1
0.51

----------
I'd be grateful if you could share measured inhibition for these entries.
biological target: Mitogen-activated protein kinase 14 (Homo sapiens) (UniProt Q16539); details: at 1 µM;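 note: values are mean percent inhibition of p38alpha kinase activity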
Sequence (Q16539 whole entry): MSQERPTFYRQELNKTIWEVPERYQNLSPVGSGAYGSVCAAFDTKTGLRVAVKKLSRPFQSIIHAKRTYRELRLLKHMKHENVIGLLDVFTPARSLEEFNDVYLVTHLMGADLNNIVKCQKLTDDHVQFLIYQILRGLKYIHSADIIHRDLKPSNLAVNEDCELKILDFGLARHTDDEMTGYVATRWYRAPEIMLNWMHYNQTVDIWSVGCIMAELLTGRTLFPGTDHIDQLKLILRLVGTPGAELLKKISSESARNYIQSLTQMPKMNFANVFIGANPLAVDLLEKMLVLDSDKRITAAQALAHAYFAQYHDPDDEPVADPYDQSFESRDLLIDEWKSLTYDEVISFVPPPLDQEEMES
Give bare numbers, in %.

Here is how some compounds turned out for inhibition.
{"COMPOUND": "Oc1cccc(-c2nc(-c3ccccc3)[nH]c2-c2ccncc2)c1", "inhibition (%)": 71.1}
{"COMPOUND": "CCn1c(-c2nonc2N)nc2c(C#CC(C)(C)O)nc(OCCNC)cc21", "inhibition (%)": 7.38}
{"COMPOUND": "COc1cc2ncnc(Nc3ccc(C)c(O)c3)c2cc1OC", "inhibition (%)": 22.1}
{"COMPOUND": "COc1cccc(-n2ncc3c(N/N=C/c4ccc(S(C)(=O)=O)cc4)ncnc32)c1", "inhibition (%)": 4.7}
{"COMPOUND": "Cc1ccc(NC(=O)CC2CC2)cc1-c1ccc(C(=O)NCC2CC2)cc1", "inhibition (%)": 74.3}

Provide inhibition values for the following items, in order.
1. C[C@@H](Oc1cc(-n2cnc3ccc(OCC4CCN(C)CC4)cc32)sc1C(N)=O)c1ccccc1C(F)(F)F
2. O=C1Nc2ccc(-c3cccnc3)cc2C1=Cc1cc(Br)c(O)c(Br)c1
3. COc1cc2ncn(-c3cc(OCc4ccccc4S(C)(=O)=O)c(C#N)s3)c2cc1OC
4. N#Cc1c(NC(=O)c2ccccc2F)sc2c1CCCC2
5. Cc1cc(-c2ccccn2)cc(C)c1/C=C/c1cncc(-c2nn[nH]n2)c1
6. CCS(=O)(=O)c1ccc(OC)c(Nc2nccc(N(C)c3ccc4c(C)n[nH]c4c3)n2)c1
7. CN1CCN(C(=O)c2ccc(NC(=O)Nc3ccc(N(C)c4ccnc(Nc5ccc(CS(C)(=O)=O)cc5)n4)cc3)cc2)CC1

1.86
7.67
8.47
-1.18
12.9
8.09
4.32

Provide inhibition values for the following items, in order.
1. NC(=O)c1sc(-n2cnc3ccccc32)cc1OCc1ccccc1Br
2. Cc1ccc(Nc2ccnc(Nc3cccc(C(N)=O)c3)n2)cc1O
3. ON=C1CCc2cc(-c3nc(C4CCNCC4)[nH]c3-c3ccncc3)ccc21
4. O=C(Nc1ccc(Oc2ccc3[nH]c(NC(=O)c4ccco4)nc3c2)cc1)Nc1cc(C(F)(F)F)ccc1F
5. [O-][S+]1CCN(Cc2ccc(-c3ccc4ncnc(Nc5ccc(OCc6ccccc6)c(Cl)c5)c4c3)o2)CC1

1: 23.1; 2: 28; 3: 73.7; 4: 39.4; 5: 20.8

Provide inhibition values for the following items, in order.
1. FC(F)(F)c1ccc(-c2nn3ncccc3c2-c2ccnc(Nc3ccc4c(c3)OCCO4)n2)cc1
2. CN(C)CCCn1c(-c2nonc2N)nc2cnccc21
3. COC(=O)c1cncc(/C=C/c2c(C)cc(O)cc2C)c1
4. Nc1nccc(C#Cc2cncnc2Nc2ccc(OCc3cccc(F)c3)c(Cl)c2)n1

67.5
12.9
5.57
7.42

Provide inhibition values for the following items, in order.
1. COc1cc2ncnc(Nc3ccc4c(cnn4Cc4ccccc4)c3)c2cc1OC
2. CC(C)c1ccc2c(c1)NC(=O)/C2=N/Nc1ccc(S(N)(=O)=O)cc1
3. CCCN1CCCC(c2ccc(Nc3nc(Nc4cc(F)ccc4C(N)=O)c4cc[nH]c4n3)c(OC)c2)C1 (stereo not given)
4. Nc1ccc(C#Cc2cncnc2Nc2ccc(OCc3cccc(F)c3)c(Cl)c2)cc1
5. c1ccc(Cc2nc3ccc(Nc4ncnc5ccccc45)cc3[nH]2)cc1
6. Cc1ccc(O)cc1Nc1ccnc2ccc(S(C)(=O)=O)cc12
7. Cc1ccc2c(-c3ccnc(Nc4ccc5c(c4)OCCO5)n3)c(-c3ccc(C(F)(F)F)cc3)nn2n1

1. 3.94
2. -0.04
3. 17.1
4. 8.07
5. 6.36
6. 58.8
7. 23.2

Provide inhibition values for the following items, in order.
1. COc1cccc(-n2ncc3c(N/N=C/c4ccc(C)cc4)ncnc32)c1
2. NS(=O)(=O)c1ccc(Nc2cc(-c3cccc(O)c3)n[nH]2)cc1

1: 9.02; 2: 9.21
